As shown below, each of these sequences has a reported self-aminoacylation value.
- Tested on: biotinyl-Leu-oxazolone
- Test details: self-aminoacylation, catalytic enhancement (BLO) (fold over background); higher = more active; k-Seq, kA / k0A0; sequences stand for … in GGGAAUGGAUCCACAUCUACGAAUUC…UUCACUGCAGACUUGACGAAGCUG
Variants at the floor of the assay were thinned out.
Please give only the number in your answer, with no unit.

Use these answered entries as a reference point.
> print(dat)
                             chain.sequence             system.name  endpoint.value
1  AUUACCAUGGUCAUGGAGUGA [Fam2.1 aminoacylation ribozyme variant]  biotinyl-Leu-oxazolone            5.78
2  AAUCCCCUAGGUCAUCGGGUG [Fam2.2 aminoacylation ribozyme variant]  biotinyl-Leu-oxazolone            16.3

**Q:** Item under review: AAGUUUGCUAACAGUCGCACG [Fam3.1 aminoacylation ribozyme variant] . Reported self-aminoacylation?
**A:** 0.745

**Q:** Item under review: AUUAACUUGGUCAUCGAGUGA [Fam2.1 aminoacylation ribozyme variant] . Reported self-aminoacylation?
**A:** 4.16

**Q:** Item under review: AUUACCCUGGUGAUCGACUGA [Fam2.1 aminoacylation ribozyme variant] . Reported self-aminoacylation?
**A:** 1.12

**Q:** Item under review: AUUCACCUGGGUCGUCGGGUG [Fam2.2 aminoacylation ribozyme variant] . Reported self-aminoacylation?
**A:** 2.3

**Q:** Item under review: CCAAACUUCAAGCAAUCGGCC [Fam1B.1 aminoacylation ribozyme variant] . Reported self-aminoacylation?
**A:** 3.45

**Q:** Item under review: CCACACUUCUAGCCAUCGGUC [Fam1B.1 aminoacylation ribozyme variant] . Reported self-aminoacylation?
**A:** 0.778

**Q:** Item under review: AUUCAUAUAGGUCAUCGGGUG [Fam2.2 aminoacylation ribozyme variant] . Reported self-aminoacylation?
**A:** 6.04

---

- System: biotinyl-Leu-oxazolone
- Test details: self-aminoacylation, catalytic enhancement (BLO) (fold over background); higher = more active; k-Seq, kA / k0A0; sequences stand for … in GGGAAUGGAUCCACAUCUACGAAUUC…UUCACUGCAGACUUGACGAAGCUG
This sample holds only a part of the variants without activity.
Measured quantity: self-aminoacylation
Please give only the number in your answer, with no unit.

Use these answered entries as a reference point.
> print(dat)
                             chain.sequence             system.name  endpoint.value
1  AUUACCCUUGUCACCGAGUGA [Fam2.1 aminoacylation ribozyme variant]  biotinyl-Leu-oxazolone            9.28
2  AAUUUUGCUAAUAGUCGCGAG [Fam3.1 aminoacylation ribozyme variant]  biotinyl-Leu-oxazolone             1.7
3  AUUCACCUAGGUAAUCGGUUG [Fam2.2 aminoacylation ribozyme variant]  biotinyl-Leu-oxazolone            0.91

**Q:** Item under review: AUUAACCUAGUCAUCGAGUGA [Fam2.1 aminoacylation ribozyme variant] . Reported self-aminoacylation?
**A:** 5.13

**Q:** Item under review: AUUCACCUAGGACAUCGCGUG [Fam2.2 aminoacylation ribozyme variant] . Reported self-aminoacylation?
**A:** 4.57

---

- Test system: biotinyl-Val-oxazolone
- Test details: self-aminoacylation, catalytic enhancement (BVO) (fold over background); higher = more active; k-Seq, kA / k0A0; sequences stand for … in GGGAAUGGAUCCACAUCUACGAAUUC…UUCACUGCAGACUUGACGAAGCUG
Fewer inactive variants are shown than the library holds.
Measured quantity: self-aminoacylation
Please give only the number in your answer, with no unit.

Use these answered entries as a reference point.
> print(dat)
                             chain.sequence  endpoint.value
1  CCACACAUCCAGCAAUCGGUC [Fam1B.1 aminoacylation ribozyme variant]            1.08
2  CCACACUUCAAGCCAUCGGCC [Fam1B.1 aminoacylation ribozyme variant]               5
3  AUUAACCGAGGUCAUCGGGUG [Fam2.2 aminoacylation ribozyme variant]            5.32
4  CCACACUUCAACCAAGCGGUC [Fam1B.1 aminoacylation ribozyme variant]            1.08

**Q:** Item under review: AUUCACCUGGGUCCUCGGGUG [Fam2.2 aminoacylation ribozyme variant] . Reported self-aminoacylation?
**A:** 4.67

**Q:** Item under review: AUUUACCUAGGUCAUCCGGUG [Fam2.2 aminoacylation ribozyme variant] . Reported self-aminoacylation?
**A:** 3.81

**Q:** Item under review: CUACUUCAAACAAUCAGCCUG [Fam1A.1 aminoacylation ribozyme variant] . Reported self-aminoacylation?
**A:** 1.17

**Q:** Item under review: CCACACUCCAAGUAAUCGGUC [Fam1B.1 aminoacylation ribozyme variant] . Reported self-aminoacylation?
**A:** 0.95

---

- Tested on: biotinyl-Phe-oxazolone
- Test details: self-aminoacylation, catalytic enhancement (BFO) (fold over background); higher = more active; k-Seq, kA / k0A0; sequences stand for … in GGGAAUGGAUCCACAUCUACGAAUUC…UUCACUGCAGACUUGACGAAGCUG
This sample holds only a part of the variants without activity.
Measured quantity: self-aminoacylation
Please give only the number in your answer, with no unit.

> print(dat)
                             chain.sequence  endpoint.value
1  AAGGUUGCUAAUAGUCGCACG [Fam3.1 aminoacylation ribozyme variant]            2.39

Attention now shifts to the item below.
**Q:** Item under review: CCACACUUCAAACAAUCAGUC [Fam1B.1 aminoacylation ribozyme variant] . Reported self-aminoacylation?
**A:** 42.2

---

As shown below, each of these sequences has a reported self-aminoacylation value.
- Tested on: biotinyl-Val-oxazolone
- Test details: self-aminoacylation, catalytic enhancement (BVO) (fold over background); higher = more active; k-Seq, kA / k0A0; sequences stand for … in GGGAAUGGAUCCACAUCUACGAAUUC…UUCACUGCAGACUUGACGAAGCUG
Fewer inactive variants are shown than the library holds.
Please give only the number in your answer, with no unit.

Use these answered entries as a reference point.
> print(dat)
                             chain.sequence  endpoint.value
1  CAACACUUCAAGCAAUCGGUA [Fam1B.1 aminoacylation ribozyme variant]            1.14
2  AGUCACCUAGGUCAUCCGGUG [Fam2.2 aminoacylation ribozyme variant]            5.32

Attention now shifts to the item below.
**Q:** Item under review: AUUCACCUAGAUCGUCGGGUG [Fam2.2 aminoacylation ribozyme variant] . Reported self-aminoacylation?
**A:** 1.38

---

As shown below, each of these sequences has a reported self-aminoacylation value.
- Test system: biotinyl-Ile-oxazolone
- Test details: self-aminoacylation, catalytic enhancement (BIO) (fold over background); higher = more active; k-Seq, kA / k0A0; sequences stand for … in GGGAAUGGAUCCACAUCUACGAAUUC…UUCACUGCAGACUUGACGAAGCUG
This sample holds only a part of the variants without activity.
Please give only the number in your answer, with no unit.

**Q:** Item under review: AUUCCCCUAGGUCAUCGAGUG [Fam2.2 aminoacylation ribozyme variant] . Reported self-aminoacylation?
**A:** 7.79

**Q:** Item under review: GUUACCCUGGUCAUCGGGUGA [Fam2.1 aminoacylation ribozyme variant] . Reported self-aminoacylation?
**A:** 30.9

**Q:** Item under review: CCACACGUCAUGCAAUCGGUC [Fam1B.1 aminoacylation ribozyme variant] . Reported self-aminoacylation?
**A:** 1.18

**Q:** Item under review: AUUACCCUAGUCAUCGAGUCA [Fam2.1 aminoacylation ribozyme variant] . Reported self-aminoacylation?
**A:** 0.724

**Q:** Item under review: UUUCACCUAGGGCAUCGGGUG [Fam2.2 aminoacylation ribozyme variant] . Reported self-aminoacylation?
**A:** 3.17

**Q:** Item under review: AUUAUCCUGGUCAGCGAGUGA [Fam2.1 aminoacylation ribozyme variant] . Reported self-aminoacylation?
**A:** 3.04

**Q:** Item under review: CCACCCUUCAAGCAAGCGGUC [Fam1B.1 aminoacylation ribozyme variant] . Reported self-aminoacylation?
**A:** 1.01

**Q:** Item under review: AUACUUCAAGCAAUCGGUCUG [Fam1A.1 aminoacylation ribozyme variant] . Reported self-aminoacylation?
**A:** 0.786

**Q:** Item under review: AUUCACCUAGGUCACCGCGUG [Fam2.2 aminoacylation ribozyme variant] . Reported self-aminoacylation?
**A:** 7.2

**Q:** Item under review: AUUCACCGAGGUAAUCGGGUG [Fam2.2 aminoacylation ribozyme variant] . Reported self-aminoacylation?
**A:** 4.23

**Q:** Item under review: AUACACCUGGGUCAUCGGGUG [Fam2.2 aminoacylation ribozyme variant] . Reported self-aminoacylation?
**A:** 3.31

**Q:** Item under review: CCACACUUCAAGAAAUCGGGC [Fam1B.1 aminoacylation ribozyme variant] . Reported self-aminoacylation?
**A:** 2.14

**Q:** Item under review: AUUACCCUGAUCAUCGAAUGA [Fam2.1 aminoacylation ribozyme variant] . Reported self-aminoacylation?
**A:** 0.936

**Q:** Item under review: CCACACCGCAAGCAAUCGGUC [Fam1B.1 aminoacylation ribozyme variant] . Reported self-aminoacylation?
**A:** 1.12

**Q:** Item under review: CCGCACUUCCAGCAAUCGGUC [Fam1B.1 aminoacylation ribozyme variant] . Reported self-aminoacylation?
**A:** 1.35

**Q:** Item under review: CUCCUUCAACCAAUCGGUCUG [Fam1A.1 aminoacylation ribozyme variant] . Reported self-aminoacylation?
**A:** 1.11

**Q:** Item under review: AUACUUCAAACAAGCGGUCUG [Fam1A.1 aminoacylation ribozyme variant] . Reported self-aminoacylation?
**A:** 0.977

**Q:** Item under review: AAGUUUGCGACUAGUCGCAAG [Fam3.1 aminoacylation ribozyme variant] . Reported self-aminoacylation?
**A:** 1.78
